study system: recombinant guanylate cyclase reporter cell line (Rattus norvegicus, UniProt P19686+P20595)
Construct: expressed in transfected cells
Sequence (P19686 1-690): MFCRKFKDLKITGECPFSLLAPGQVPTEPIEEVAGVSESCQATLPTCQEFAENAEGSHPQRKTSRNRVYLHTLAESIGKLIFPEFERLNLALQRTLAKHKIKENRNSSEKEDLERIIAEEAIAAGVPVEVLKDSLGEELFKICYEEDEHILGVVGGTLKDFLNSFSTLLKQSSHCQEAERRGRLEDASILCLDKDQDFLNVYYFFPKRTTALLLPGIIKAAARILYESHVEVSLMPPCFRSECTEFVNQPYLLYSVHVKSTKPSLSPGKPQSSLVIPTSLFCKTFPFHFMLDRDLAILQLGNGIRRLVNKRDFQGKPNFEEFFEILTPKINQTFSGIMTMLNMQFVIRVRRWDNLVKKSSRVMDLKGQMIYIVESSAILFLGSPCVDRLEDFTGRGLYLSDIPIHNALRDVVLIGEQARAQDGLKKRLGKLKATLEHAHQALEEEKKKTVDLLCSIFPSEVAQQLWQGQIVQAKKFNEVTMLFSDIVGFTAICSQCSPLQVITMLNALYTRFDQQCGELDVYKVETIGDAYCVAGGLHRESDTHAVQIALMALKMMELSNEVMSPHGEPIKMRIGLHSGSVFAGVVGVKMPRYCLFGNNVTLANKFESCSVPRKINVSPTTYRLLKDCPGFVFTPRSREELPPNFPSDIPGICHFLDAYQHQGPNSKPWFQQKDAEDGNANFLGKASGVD
Sequence (P20595 1-619): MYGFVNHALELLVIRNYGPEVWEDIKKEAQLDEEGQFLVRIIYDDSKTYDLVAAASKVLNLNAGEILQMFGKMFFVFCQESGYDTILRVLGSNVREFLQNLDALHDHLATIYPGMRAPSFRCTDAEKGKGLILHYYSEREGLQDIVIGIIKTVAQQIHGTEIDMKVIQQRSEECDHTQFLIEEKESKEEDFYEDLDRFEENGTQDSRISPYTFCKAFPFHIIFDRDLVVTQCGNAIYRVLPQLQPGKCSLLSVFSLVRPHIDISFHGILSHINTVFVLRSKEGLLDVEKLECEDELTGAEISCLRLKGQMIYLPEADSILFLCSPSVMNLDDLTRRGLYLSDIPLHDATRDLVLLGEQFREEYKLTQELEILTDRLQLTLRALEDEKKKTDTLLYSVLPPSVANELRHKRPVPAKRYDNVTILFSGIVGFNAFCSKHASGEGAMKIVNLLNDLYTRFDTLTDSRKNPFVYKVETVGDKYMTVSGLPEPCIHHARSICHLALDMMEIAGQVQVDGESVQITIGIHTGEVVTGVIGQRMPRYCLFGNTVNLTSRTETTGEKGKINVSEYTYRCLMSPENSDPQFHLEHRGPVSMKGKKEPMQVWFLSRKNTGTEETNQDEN
measurement description: Effect on a recombinant guanylate cyclase reporter cell line
Type: cell-based
stated conditions: MEC = minimum effective concentration; in some cases means of individual determinations
Procedure: B-2. Effect on a Recombinant Guanylate Cyclase Reporter Cell Line The cellular activity of the compounds of the invention is determined using a recombinant guanylate cyclase reporter cell line, as described in F. Wunder et al., Anal. Biochem. 2005, 339, 104-112. Representative values (MEC=minimum effective concentration) for the compounds of the invention are shown in the table below (Table 1B; in some cases as means of individual determinations): […]
observable: MEC (µM)

{"molecule": "Cc1nc2c(cc1F)c(-c1nc3c(c(C(N)=O)n1)C(C)(C(F)(F)F)C(=O)N3)nn2Cc1c(F)ccc(F)c1F (single isomer, unassigned; ent-2) [Example 16]", "MEC, µM": 0.17}

(1) CC1(C)C(=O)Nc2nc(-c3nn(Cc4ccccc4F)c4ncccc34)nc(C(=O)Nc3cc(F)cc(F)c3)c21 [Example 76]
(2) CC1(C)C(=O)Nc2nc(-c3nn(Cc4ccccc4F)c4ncccc34)nc(C(=O)NCC3CCCC3)c21 [Example 92]
stdin: Pick one: 1 or 2 . Which has the bigger MEC number? // respond with label for picked entry
stdout: 1

(a) CC1(C)C(=O)Nc2nc(-c3nn(Cc4ccccc4F)c4ncccc34)nc(C(=O)NC3CCCC3)c21 [Example 126]
(b) CC1(C)C(=O)Nc2nc(-c3nn(Cc4ccccc4F)c4ncc(F)cc34)nc(C(=O)NC3CC3)c21 [Example 28]
stdin: Pick one: a or b . Which has the bigger MEC number? // respond with label for picked entry
stdout: a
(a: 0.3 µM, b: 0.03 µM)
